FYI, the data here is from patent US12365687B2.

# System under test: α2β2γ1 GABAA receptor subtype (Homo sapiens (Human), UniProt P47869+Q8N1C3)
# Method notes: Two-electrode voltage clamp electrophysiology in Xenopus oocytes expressing GABAA receptors (modulation of GABA EC20 current)
# Assay type: cell-based
# Measurement setup: % modulation of GABA EC20 = 100*(Fold increase-1); α2β2γ1 oocytes; compound at approx. 30-fold Ki
Measured parameter: Efficacy (GABA)% (%)
# output: bare number, implied unit %

Below, each entry is followed by its recorded Efficacy (GABA)% result.
stdin: Any idea what Efficacy (GABA)% was measured for C[C@@H]1N=C(c2c(F)cccc2F)c2c(ccc(Cl)c2Cl)-n2cc(C(=O)N3CCC3)nc21 [Example 70] ?
stdout: 73

stdin: Check C[C@@H]1N=C(c2ncccc2F)c2c(ccc(C(F)(F)F)c2Cl)-n2nc(C(=O)N3CC4(COC4)C3)nc21 [Example 112] too.
stdout: 136

stdin: Check C[C@@H]1N=C(c2c(F)cccc2F)c2c(ccc(Cl)c2Cl)-n2nc(C(=O)N3CC[C@H](F)C3)nc21 [Example 80] too.
stdout: 89

stdin: Check OCc1cn2c(n1)CN=C(c1c(F)cccc1F)c1c-2ccc(Br)c1Cl [Example 4] too.
stdout: 105

stdin: Check COC1CN(C(=O)c2nc3n(n2)-c2ccc(C(F)(F)F)c(Cl)c2C(c2ncccc2F)=N[C@H]3C)C1 [Example 103] too.
stdout: 113

---
stdin: Any idea what Efficacy (GABA)% was measured for C[C@@H]1N=C(c2c(F)cccc2F)c2c(ccc(Cl)c2Cl)-n2nc(C(=O)N3CCS(=O)(=O)CC3)nc21 [Example 36] ?
stdout: 71

stdin: Check COC1CN(C(=O)c2nc3n(n2)-c2ccc(Cl)c(Cl)c2C(c2ncccc2F)=N[C@H]3C)C1 [Example 38] too.
stdout: 116

stdin: Check C[C@@H]1N=C(c2c(F)cccc2F)c2c(ccc(Cl)c2Cl)-n2ncnc21 [Example 15] too.
stdout: 62
